The measured values listed here are drawn from the kinase profiling compilation of Christmann-Franck et al. (2016).

- ASSAY_TARGET: LIMK1 (human)
- ASSAY_REMARKS: radiometric filter-binding kinase assay, Kinase HotSpot
- CONDITION_DETAILS: compound 0.5 µM; ATP 10 µM

>  <STRUCTURE_AS_SMILES>
Nc1n[nH]c2nnc(-c3c(-c4ccccc4)nn4ccccc34)cc12

>  <residual activity [%]>
98.2

$$$$
>  <STRUCTURE_AS_SMILES>
C#Cc1cccc(Nc2ncnc3cc(OCCOC)c(OCCOC)cc23)c1

>  <residual activity [%]>
90.4

$$$$
>  <STRUCTURE_AS_SMILES>
Nc1nc(Nc2ccc(S(N)(=O)=O)cc2)nn1C(=O)c1c(F)cccc1F

>  <residual activity [%]>
16.6

$$$$
>  <STRUCTURE_AS_SMILES>
COc1cc2ncnc(Nc3ccc(F)c(Cl)c3)c2cc1OCCCN1CCOCC1

>  <residual activity [%]>
90

$$$$
>  <STRUCTURE_AS_SMILES>
O=c1cc(N2CCNCC2)oc2c(-c3ccccc3)cccc12

>  <residual activity [%]>
108

$$$$
>  <STRUCTURE_AS_SMILES>
COc1cc2nccc(Oc3ccc(NC(=S)NC(=O)c4ccccc4C)cc3)c2cc1OC

>  <residual activity [%]>
82.7

$$$$
>  <STRUCTURE_AS_SMILES>
O=C(Nc1ccc(Cl)cc1)c1ccccc1NCc1ccncc1

>  <residual activity [%]>
83.4

$$$$
>  <STRUCTURE_AS_SMILES>
Cc1cc2ncc(-c3ccccc3)nc2cc1C

>  <residual activity [%]>
102

$$$$
>  <STRUCTURE_AS_SMILES>
NC(=O)c1ccc(N(C(N)=O)c2c(F)cccc2F)nc1-c1ccc(F)cc1F

>  <residual activity [%]>
98.5

$$$$
>  <STRUCTURE_AS_SMILES>
CCCNC(=O)Nc1ccc(Oc2ncnc3cc(OC)c(OC)cc23)cc1Cl

>  <residual activity [%]>
81.6

$$$$
>  <STRUCTURE_AS_SMILES>
O=C1Cc2c([nH]c3ccc([N+](=O)[O-])cc23)-c2ccccc2N1

>  <residual activity [%]>
94.3

$$$$

----------
Recorded residual activity, one value per entry.
- ASSAY_TARGET: CAMK1 (human) (UniProt Q14012)
- Sequence (Q14012 whole entry, looked up): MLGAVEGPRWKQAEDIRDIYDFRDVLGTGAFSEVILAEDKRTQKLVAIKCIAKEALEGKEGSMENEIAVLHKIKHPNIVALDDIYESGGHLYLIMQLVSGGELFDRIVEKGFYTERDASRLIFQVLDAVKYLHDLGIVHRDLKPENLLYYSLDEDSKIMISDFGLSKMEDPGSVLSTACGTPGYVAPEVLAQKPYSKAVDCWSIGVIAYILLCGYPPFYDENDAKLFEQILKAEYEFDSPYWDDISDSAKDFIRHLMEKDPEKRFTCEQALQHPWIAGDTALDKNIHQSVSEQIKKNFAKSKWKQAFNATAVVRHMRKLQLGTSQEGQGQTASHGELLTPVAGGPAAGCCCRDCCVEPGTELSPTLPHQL
- ASSAY_REMARKS: radiometric filter-binding kinase assay, Kinase HotSpot
- CONDITION_DETAILS: compound 0.5 µM; ATP 10 µM
READOUT_KIND: residual activity (%)

>  <MOLECULE>
O=C1Nc2ccccc2/C1=C\c1c(Cl)[nH]c2ccccc12

>  <ENDPOINT_VALUE>
106

$$$$
>  <MOLECULE>
C#Cc1cccc(Nc2ncnc3cc(OCCOC)c(OCCOC)cc23)c1

>  <ENDPOINT_VALUE>
98.9

$$$$
>  <MOLECULE>
CCCNC(=O)Nc1ccc(Oc2ncnc3cc(OC)c(OC)cc23)cc1Cl

>  <ENDPOINT_VALUE>
96.7

$$$$
>  <MOLECULE>
O=c1cc(-c2cccc3c2Sc2ccccc2S3)oc(N2CCOCC2)c1

>  <ENDPOINT_VALUE>
94.2

$$$$
>  <MOLECULE>
O=C(NC(NC(=S)Nc1ccc(F)c([N+](=O)[O-])c1)C(Cl)(Cl)Cl)C(c1ccccc1)c1ccccc1 (stereo not given)

>  <ENDPOINT_VALUE>
93.1

$$$$

----------
- ASSAY_TARGET: UniProt P08922
- Sequence (P08922 whole entry, looked up): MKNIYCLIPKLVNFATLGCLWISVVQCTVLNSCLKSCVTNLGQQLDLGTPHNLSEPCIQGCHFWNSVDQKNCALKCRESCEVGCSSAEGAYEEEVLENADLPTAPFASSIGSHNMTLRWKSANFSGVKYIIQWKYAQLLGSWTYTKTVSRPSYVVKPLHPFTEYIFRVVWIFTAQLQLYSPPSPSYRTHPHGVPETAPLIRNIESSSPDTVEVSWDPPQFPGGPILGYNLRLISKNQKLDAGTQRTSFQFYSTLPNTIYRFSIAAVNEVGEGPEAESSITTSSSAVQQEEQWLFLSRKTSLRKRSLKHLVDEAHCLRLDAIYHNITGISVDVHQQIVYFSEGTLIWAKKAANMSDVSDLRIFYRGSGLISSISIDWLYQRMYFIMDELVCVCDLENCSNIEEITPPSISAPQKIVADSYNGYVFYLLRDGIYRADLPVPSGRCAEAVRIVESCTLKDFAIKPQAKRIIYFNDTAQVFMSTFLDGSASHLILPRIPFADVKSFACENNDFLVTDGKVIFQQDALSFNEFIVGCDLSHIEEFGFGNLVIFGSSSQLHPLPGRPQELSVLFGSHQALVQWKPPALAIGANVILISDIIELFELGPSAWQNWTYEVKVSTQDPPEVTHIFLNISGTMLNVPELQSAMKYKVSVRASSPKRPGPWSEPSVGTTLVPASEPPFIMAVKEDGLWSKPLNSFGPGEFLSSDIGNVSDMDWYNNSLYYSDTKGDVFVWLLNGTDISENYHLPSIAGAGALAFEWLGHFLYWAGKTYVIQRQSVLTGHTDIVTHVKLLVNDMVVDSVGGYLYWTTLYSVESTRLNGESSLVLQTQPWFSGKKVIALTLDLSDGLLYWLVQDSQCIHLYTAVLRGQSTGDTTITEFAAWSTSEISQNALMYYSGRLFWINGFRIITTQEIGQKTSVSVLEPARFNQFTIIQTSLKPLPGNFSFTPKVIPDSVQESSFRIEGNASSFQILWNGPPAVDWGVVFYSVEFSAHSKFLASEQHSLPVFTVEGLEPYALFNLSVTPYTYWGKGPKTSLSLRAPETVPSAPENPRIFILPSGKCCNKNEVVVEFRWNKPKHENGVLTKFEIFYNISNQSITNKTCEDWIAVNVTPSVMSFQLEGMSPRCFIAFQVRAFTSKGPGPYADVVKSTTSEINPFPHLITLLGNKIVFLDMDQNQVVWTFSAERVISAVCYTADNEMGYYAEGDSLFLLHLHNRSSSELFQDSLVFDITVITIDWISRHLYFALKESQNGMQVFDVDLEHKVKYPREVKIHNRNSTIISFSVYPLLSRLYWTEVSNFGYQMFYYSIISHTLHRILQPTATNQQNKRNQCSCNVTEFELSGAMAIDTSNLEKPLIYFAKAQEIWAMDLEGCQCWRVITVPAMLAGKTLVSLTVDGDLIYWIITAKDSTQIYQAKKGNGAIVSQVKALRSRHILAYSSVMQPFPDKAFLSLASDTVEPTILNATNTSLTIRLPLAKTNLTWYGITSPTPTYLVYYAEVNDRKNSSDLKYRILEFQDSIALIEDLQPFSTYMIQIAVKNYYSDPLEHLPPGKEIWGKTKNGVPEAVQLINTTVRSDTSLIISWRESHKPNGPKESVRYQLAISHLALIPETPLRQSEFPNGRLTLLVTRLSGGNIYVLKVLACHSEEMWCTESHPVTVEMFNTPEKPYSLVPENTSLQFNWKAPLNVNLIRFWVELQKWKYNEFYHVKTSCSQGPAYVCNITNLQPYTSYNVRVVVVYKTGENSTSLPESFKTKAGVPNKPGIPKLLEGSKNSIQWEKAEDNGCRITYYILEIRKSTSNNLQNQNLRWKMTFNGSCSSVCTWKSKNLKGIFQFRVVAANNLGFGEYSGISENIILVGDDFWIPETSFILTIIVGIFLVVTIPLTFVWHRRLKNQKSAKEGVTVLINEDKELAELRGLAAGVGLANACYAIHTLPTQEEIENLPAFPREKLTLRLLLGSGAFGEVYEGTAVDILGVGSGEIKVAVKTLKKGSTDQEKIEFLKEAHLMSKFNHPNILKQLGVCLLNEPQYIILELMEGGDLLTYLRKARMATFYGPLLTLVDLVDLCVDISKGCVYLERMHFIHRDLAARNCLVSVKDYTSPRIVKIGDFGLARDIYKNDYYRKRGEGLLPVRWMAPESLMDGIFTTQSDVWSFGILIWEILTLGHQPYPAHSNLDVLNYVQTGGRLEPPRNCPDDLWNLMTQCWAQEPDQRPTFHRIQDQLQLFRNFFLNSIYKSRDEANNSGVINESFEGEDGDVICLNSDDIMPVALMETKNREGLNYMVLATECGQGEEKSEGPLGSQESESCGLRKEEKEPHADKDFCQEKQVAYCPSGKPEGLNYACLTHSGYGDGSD
- ASSAY_REMARKS: radiometric filter-binding kinase assay, Kinase HotSpot
- CONDITION_DETAILS: compound 0.5 µM; ATP 10 µM

>  <STRUCTURE_AS_SMILES>
NC(=O)c1ccc(N(C(N)=O)c2c(F)cccc2F)nc1-c1ccc(F)cc1F

>  <ASSAY_TARGET>
UniProt P08922

>  <MEASUREMENT_UNITS>
%

>  <residual activity>
95

$$$$
>  <STRUCTURE_AS_SMILES>
CC(C)(C)c1nc2c3ccc(F)cc3c3c(=O)[nH]ccc3c2[nH]1

>  <ASSAY_TARGET>
UniProt P08922

>  <MEASUREMENT_UNITS>
%

>  <residual activity>
31.2

$$$$
>  <STRUCTURE_AS_SMILES>
CC(C)[C@H](CO)Nc1nc(Nc2cccc(Cl)c2)c2ncn(C(C)C)c2n1

>  <ASSAY_TARGET>
UniProt P08922

>  <MEASUREMENT_UNITS>
%

>  <residual activity>
88.1

$$$$
>  <STRUCTURE_AS_SMILES>
Nc1nc(Nc2ccc(S(N)(=O)=O)cc2)nn1C(=S)Nc1c(F)cccc1F

>  <ASSAY_TARGET>
UniProt P08922

>  <MEASUREMENT_UNITS>
%

>  <residual activity>
1.68

$$$$
>  <STRUCTURE_AS_SMILES>
Clc1ccc(Nc2nnc(Cc3ccncc3)c3ccccc23)cc1

>  <ASSAY_TARGET>
UniProt P08922

>  <MEASUREMENT_UNITS>
%

>  <residual activity>
94.7

$$$$
>  <STRUCTURE_AS_SMILES>
Oc1ccc(-c2nc(-c3ccc(F)cc3)c(-c3ccncc3)[nH]2)cc1

>  <ASSAY_TARGET>
UniProt P08922

>  <MEASUREMENT_UNITS>
%

>  <residual activity>
89.8

$$$$
>  <STRUCTURE_AS_SMILES>
Cc1ccc(NC(=O)c2ccc(CN3CCN(C)CC3)cc2)cc1Nc1nc(-c2cccnc2)cs1

>  <ASSAY_TARGET>
UniProt P08922

>  <MEASUREMENT_UNITS>
%

>  <residual activity>
91.5

$$$$
>  <STRUCTURE_AS_SMILES>
CCCNC(=O)Nc1ccc(Oc2ncnc3cc(OC)c(OC)cc23)cc1Cl

>  <ASSAY_TARGET>
UniProt P08922

>  <MEASUREMENT_UNITS>
%

>  <residual activity>
97.6

$$$$
>  <STRUCTURE_AS_SMILES>
O=C1Nc2cc(Br)ccc2/C1=C1/Nc2ccccc2/C1=N\O

>  <ASSAY_TARGET>
UniProt P08922

>  <MEASUREMENT_UNITS>
%

>  <residual activity>
82

$$$$
>  <STRUCTURE_AS_SMILES>
O=C1Cc2c([nH]c3ccc([N+](=O)[O-])cc23)-c2ccccc2N1

>  <ASSAY_TARGET>
UniProt P08922

>  <MEASUREMENT_UNITS>
%

>  <residual activity>
80.2

$$$$

----------
- ASSAY_TARGET: MAP3K8 (human)
- ASSAY_REMARKS: radiometric filter-binding kinase assay, Kinase HotSpot
- CONDITION_DETAILS: compound 0.5 µM; ATP 10 µM

>  <MOLECULE>
CSc1nc(-c2ccc(F)cc2)c(-c2ccnc(NC(C)c3ccccc3)c2)[nH]1 (stereo not given)

>  <residual activity / %>
88.6

$$$$
>  <MOLECULE>
CCN1/C(=C/C(C)=O)Sc2ccc(OC)cc21

>  <residual activity / %>
103

$$$$
>  <MOLECULE>
Clc1ccc(Nc2nnc(Cc3ccncc3)c3ccccc23)cc1

>  <residual activity / %>
98.2

$$$$
>  <MOLECULE>
O=c1cc(-c2cccc3c2Sc2ccccc2S3)oc(N2CCOCC2)c1

>  <residual activity / %>
103

$$$$
>  <MOLECULE>
O=C1Nc2ccccc2/C1=C\c1c(Cl)[nH]c2ccccc12

>  <residual activity / %>
94.3

$$$$
>  <MOLECULE>
O=C(Nc1ccc(Cl)cc1)c1ccccc1NCc1ccncc1

>  <residual activity / %>
105

$$$$
>  <MOLECULE>
O=C1Cc2c([nH]c3ccc([N+](=O)[O-])cc23)-c2ccccc2N1

>  <residual activity / %>
99

$$$$
>  <MOLECULE>
Nc1nc(Nc2ccc(S(N)(=O)=O)cc2)nn1C(=O)c1c(F)cccc1F

>  <residual activity / %>
94.4

$$$$
>  <MOLECULE>
O=C(NC(NC(=S)Nc1ccc(F)c([N+](=O)[O-])c1)C(Cl)(Cl)Cl)C(c1ccccc1)c1ccccc1 (stereo not given)

>  <residual activity / %>
105

$$$$
>  <MOLECULE>
COc1cc2nccc(Oc3ccc(NC(=S)NC(=O)c4ccccc4C)cc3)c2cc1OC

>  <residual activity / %>
94.1

$$$$
>  <MOLECULE>
CC(C)(C)c1nc2c3ccc(F)cc3c3c(=O)[nH]ccc3c2[nH]1

>  <residual activity / %>
128

$$$$
>  <MOLECULE>
CC(C)[C@H](CO)Nc1nc(Nc2cccc(Cl)c2)c2ncn(C(C)C)c2n1

>  <residual activity / %>
101

$$$$
>  <MOLECULE>
Oc1ccc(-c2nc(-c3ccc(F)cc3)c(-c3ccncc3)[nH]2)cc1

>  <residual activity / %>
96.6

$$$$
>  <MOLECULE>
COc1ccc(-c2cnc3c(-c4ccsc4)cnn3c2)cc1

>  <residual activity / %>
105

$$$$
>  <MOLECULE>
Nc1nc(Nc2ccc(S(N)(=O)=O)cc2)nn1C(=S)Nc1c(F)cccc1F

>  <residual activity / %>
127

$$$$
